assay: Solubility; type: physicochemical; conditions: Tris buffer pH 8.5, pH 8.5, aqueous buffer, thermodynamic from solid, pH = 8.5 Tris buffer, 24 h room temperature, max. 500 μg/ml
Kindly supply the reported solubility at 24 h values for the records listed here.
One number for each entry, in µg/mL.

molecule: NC(=O)c1nc(Cn2nc(-c3ccc(Cl)cc3)n(C[C@H](OP(=O)(O)O)C(F)(F)F)c2=O)nn1-c1ccccc1C(F)(F)F [Example 10]
assay result: 479

Value sought for every listed molecule: solubility at 24 h.
1. NC(=O)c1nc(Cn2nc(-c3ccc(Cl)cc3)n(C[C@H](O)C(F)(F)F)c2=O)nn1-c1ncccc1C(F)(F)F [Example 4A]
2. NC(=O)c1nc(Cn2nc(-c3ccc(Cl)cc3)n(C[C@H](O)C(F)(F)F)c2=O)nn1-c1ccccc1C(F)(F)F [Example 6A]

[reply]
[6.7, 4.3]
